# Measurement target: Ec Hfq Y83W (Escherichia coli, UniProt P0A6X3 1-102, Y83W)
# Assay comment: fluorescence polarization
pKd: −log10 of the molar value.
# maps each entry to its pKd
Observable: pKd

AAAAAAAAAAAAAAA (ssRNA) [A15 (fluorescein)] | 8.13
UUUUUU (ssRNA) [U6 (fluorescein)] | 6.11
